These data points were gathered from patent US9474275B2.

The reader will find reported LogP values listed item by item below.
conditions: method [a]: LC-MS at pH 2.7, 0.1% formic acid in water / acetonitrile, linear gradient 10% to 95% acetonitrile

Example results:
Requested read-out: LogP. Entry: CC(NC(=C(C#N)C(=O)C1CC1)c1cccnc1Cl)C1CC1 (centres unmarked) [Compound 42]
3.06^[a]

Reported LogP, molecule CC(C)C(C)NC(=C(C#N)C(=O)c1ccsn1)c1cccnc1Cl (centres unmarked) [Compound 25] : ____
2.98^[a]

// LogP lookup, key: CC(NC(=C(C#N)C(=O)C1CCC1)c1cn(C)nc1C(F)F)C1CC1 (centres unmarked) [Compound 70]
3.25^[a]

If you can, please state the reported LogP value of CC(C)OCC(=O)C(C#N)=C(NC(C)C(C)C)c1cccnc1Cl (centres unmarked) [Compound 19] .
3.19^[a]

Entry CCCC(=O)C(C#N)=C(NC(C)C1CCC1)c1cccnc1Cl (racemic) [Compound 104] : reported LogP = ?
3.81^[a]

More entries:
Quick one: LogP of CCCC(=O)C(C#N)=C(NC(C)C1(C)CC1)c1cn(C)nc1C(F)F (racemic) [Compound 121] ?
3.33^[a]

---

settings: method [a]: LC-MS at pH 2.7, 0.1% formic acid in water / acetonitrile, linear gradient 10% to 95% acetonitrile
We begin with a simple list: items and their reported LogP.

Give its LogP value. Item: COCC(=O)C(C#N)=C(NC(C)C(C)C)c1cccnc1Cl (stereo not shown) [Compound 41]
2.48^[a]

I am curious: what LogP value has been reported for CCCCC(=O)C(C#N)=C(NC(C)C1(Cl)CC1)c1cccnc1Cl (stereo not shown) [Compound 47] ?
2.33^[a]

Please give the measured LogP for this compound: CC(C)C(C)NC(=C(C#N)C(=O)CCl)c1cccnc1Cl (stereo not shown) [Compound 45]
3.02^[a]

Look up LogP: CCC1CC1NC(=C(C#N)C(=O)CC1CC1)c1cccnc1Cl (stereo not shown) [Compound 72]
3.46^[a]

***
Any idea what its LogP is? The compound is CC(C)C(C)NC(=C(C#N)C(=O)CN(C)C)c1cccnc1Cl (stereo not shown) [Compound 13]
1.39^[a]

---

conditions: method [a]: LC-MS at pH 2.7, 0.1% formic acid in water / acetonitrile, linear gradient 10% to 95% acetonitrile
Entries and their LogP

So what's the measured LogP for this one? CC(NC(=C(C#N)C(=O)CC1CC1)c1cccnc1Cl)C1CC1 (stereo not drawn)
3.31^[a]

# query: LogP of entry CCCC(=O)C(C#N)=C(NC(C)Cc1ccccc1)c1cccnc1Cl (stereo not drawn)
3.83^[a]

What does the data say about its LogP? Entry: CC(C)C(C)NC(=C(C#N)C(=O)C1CC1)c1cccnc1Cl (stereo not drawn)
3.39^[a]

Entry CC(C)CC(=O)C(C#N)=C(NC(C)C(C)C)c1cccnc1Cl (stereo not drawn) has what LogP?
3.90^[a]

Can you share its LogP? I mean this compound: COCC(=O)C(C#N)=C(NC(C)c1ccccn1)c1cccnc1Cl (stereo not drawn)
1.78^[a]

Which value of LogP has been reported for CC(C)C(C)NC(=C(C#N)C(=O)C1CCC1)c1cn(C)nc1C(F)F (stereo not drawn) in the records?
3.46^[a]

---
Item under review: CC(C)C(C)NC(=C(C#N)C(=O)C1CC1C)c1cccnc1Cl (stereo not drawn) . Reported LogP?
3.80^[a]

What value of LogP has been recorded for this entry: CC(C)C(C)NC(=C(C#N)C(=O)C1CC1)c1cn(C)nc1C(F)F (stereo not drawn)
3.11^[a]

What measured LogP goes with C=CCCC(=O)C(C#N)=C(NC(C)C(C)C)c1cccnc1Cl (stereo not drawn) ?
3.7^[a]

---

system: Phytophthora infestans; format: in vivo; details: tomato plants, preventive spray, 500 ppm of active ingredient, evaluated 7 days after inoculation; 0% = untreated control, 100% = no disease
ENDPOINT_LABEL: efficacy (%)
Just the number in %, nothing appended.

Previously resolved entries follow.
Can you share its efficacy? I mean this compound: CCCC(=O)C(C#N)=C(NC(C)CC)c1cn(C)nc1C(F)F (racemic)
90

What value of efficacy has been reported for the following compound? CCCC(=O)C(C#N)=C(NC(C)C1=NOCC1)c1cccnc1Cl (racemic)
95

What value of efficacy has been recorded for this entry: CC(C)C(C)NC(=C(C#N)C(=O)C1CC1)c1cn(C)nc1C(F)F (stereo not drawn)
75

May I ask what efficacy has been recorded for CC(NC(=C(C#N)C(=O)CC1CC1)c1cn(C)nc1C(F)F)c1nccs1 (stereo not drawn) ?
95

I would be grateful if you could share the reported efficacy for COCC(=O)C(C#N)=C(NC(C)c1ccccn1)c1cccnc1Cl (stereo not drawn) .
93

Which efficacy value is on record for CCCC(=O)C(C#N)=C(NC(C)CCc1ccccc1)c1cccnc1Cl (racemic) ?
85

# input compound: CCCC(=O)C(C#N)=C(NC(C)C(C)(C)C)c1cccnc1Cl (stereo not drawn) ; wanted: its efficacy
100

Which efficacy reading was recorded for the compound COCC(=O)C(C#N)=C(NC(C)C(C)C)c1cn(C)nc1C(F)F (stereo not drawn) ?
95

Attention now shifts to the item below.
So what's the measured efficacy for this one? CC(C)CC(=O)C(C#N)=C(NC(C)C(C)C)c1cccnc1Cl (stereo not drawn)
75

---

test system: Phytophthora infestans; assay type: in vivo; conditions: tomato plants, preventive spray, 500 ppm of active ingredient, evaluated 7 days after inoculation; 0% = untreated control, 100% = no disease
ENDPOINT_LABEL: efficacy (%)
Supply the numeric figure in %, leaving out any unit text.

Request the reported efficacy associated with COCC(=O)C(C#N)=C(NC(C)c1nccs1)c1cccnc1Cl (centres unmarked) [Compound 77]
93

Others:
Which efficacy is reported for this compound? CC(C)C(C)NC(=C(C#N)C(=O)C1CCC1)c1cn(C)nc1C(F)F (centres unmarked) [Compound 34]
90

Fill blank: measured efficacy of the compound CC(C)C(C)NC(=C(C#N)C(=O)C1(F)CC1)c1cccnc1Cl (centres unmarked) [Compound 10] is ____.
95

Need efficacy of CCC1CC1NC(=C(C#N)C(=O)CC1CC1)c1cccnc1Cl (centres unmarked) [Compound 72] , thanks.
100

What value of efficacy has been recorded for this entry: CCCC(=O)C(C#N)=C(NC(C)C(C)C)c1cccnc1Cl (centres unmarked) [Compound 20]
100

---

conditions: method [a]: LC-MS at pH 2.7, 0.1% formic acid in water / acetonitrile, linear gradient 10% to 95% acetonitrile
ENDPOINT_LABEL: LogP

Would you mind telling me what LogP value was observed for CCC(=O)C(C#N)=C(NC(C)C(C)C)c1cn(C)nc1C(F)F (stereo not drawn) [Compound 23] ?
2.92^[a]

For CCCC(=O)C(C#N)=C(NC(C)C(C)OC)c1cccnc1Cl (mixture of isomers) [Compound 114] , what is its reported LogP?
3.02^[a]

More entries:
Consider the molecule CCCC(=O)C(C#N)=C(NC(C)Cc1ccccc1)c1cn(C)nc1C(F)F (stereo not drawn) [Compound 111] and give its measured LogP.
3.55^[a]

What value of LogP has been recorded for this entry: COCCC(=O)C(C#N)=C(NC(C)C(C)C)c1cccnc1Cl (stereo not drawn) [Compound 65]
2.78^[a]

Recorded LogP for CCCC(=O)C(C#N)=C(NC(C)c1nccs1)c1cccnc1Cl (stereo not drawn) [Compound 26] , please?
2.61^[a]

Value lookup for LogP; key = CCCC(=O)C(C#N)=C(NC(C)C1CC1)c1cccnc1Cl (stereo not drawn) [Compound 43]
3.25^[a]

If you can, please state the reported LogP value of CCCC(=O)C(C#N)=C(NC(C)C(C)C)c1cc(C)nn1C(F)F (stereo not drawn) [Compound 92] .
3.92^[a]

Quick one: LogP for C#CC(C)NC(=C(C#N)C(=O)CCC)c1cn(C)nc1C(F)F (racemic) [Compound 124] ?
2.66^[a]

Bench note: what LogP did C#CC(C)NC(=C(C#N)C(=O)CCC)c1cccnc1Cl (racemic) [Compound 112] show?
2.9^[a]

Recorded LogP of CCC(=O)C(C#N)=C(NC1CC1CC)c1cccnc1Cl (stereo not drawn) [Compound 68] , please.
3.13^[a]

Item under review: CCNCC(=O)C(C#N)=C(NC(C)C(C)C)c1cccnc1Cl (stereo not drawn) [Compound 57] . Reported LogP?
1.68^[a]

Give its LogP value. Item: CC(C)C(C)NC(=C(C#N)C(=O)c1ccco1)c1cccnc1Cl (stereo not drawn) [Compound 48]
3.11^[a]

---

system: Phytophthora infestans; assay type: in vivo; conditions: tomato plants, preventive spray, 500 ppm of active ingredient, evaluated 7 days after inoculation; 0% = untreated control, 100% = no disease
Each item that follows carries a reported efficacy.
Supply the numeric figure in %, leaving out any unit text.

Some compounds with known efficacy results, for comparison:
Hi! What's the reported efficacy for CCCC(=O)C(C#N)=C(NC(C)COC)c1ccnn1C(F)F (stereo not drawn) [Compound 98] on Phytophthora infestans?
100

Form field - read-out: efficacy; system: Phytophthora infestans; submitted item: CCCCC(=O)C(C#N)=C(NC(C)C1(Cl)CC1)c1cccnc1Cl (stereo not drawn) [Compound 47]
75

Missing value: efficacy, Phytophthora infestans, entry C#CC(C)NC(=C(C#N)C(=O)CCC)c1cn(C)nc1C(F)F (racemic) [Compound 124] . Fill in?
93

Hi! What's the reported efficacy for CCCC(=O)C(C#N)=C(NC(C)CCC)c1cn(C)nc1C(F)F (racemic) [Compound 129] on Phytophthora infestans?
75

For Phytophthora infestans, provide efficacy of CC(NC(=C(C#N)C(=O)CC1CC1)c1cn(C)nc1C(F)F)C1CC1 (stereo not drawn) [Compound 64] please.
98

---
Lab note: need efficacy for CC(C)C(C)NC(=C(C#N)C(=O)c1ccsn1)c1cccnc1Cl (stereo not drawn) [Compound 25] on Phytophthora infestans, anyone have it?
75

Notebook entry, Phytophthora infestans assay: efficacy of C=CCCC(=O)C(C#N)=C(NC(C)C(C)C)c1cccnc1Cl (stereo not drawn) [Compound 73] = ?
80

Quick check: efficacy on Phytophthora infestans, item CCCC(=O)C(C#N)=C(NC(C)C1(C)CC1)c1cccnc1Cl (racemic) [Compound 103] ?
95

Write down the reported efficacy of CCCC(=O)C(C#N)=C(NC(C)C1CC1)c1cn(C)nc1C(F)F (stereo not drawn) [Compound 18] , test system: Phytophthora infestans.
95
